Tested on: SKBR-3, SKOV-3, PC-3, and U-87 cancer cell lines
procedure-text: MTT assay, four cancer cell lines taken together
Assay type: cell-based, human
test-settings: IC50 HDF / IC50 cancer cell line; across the four cancer lines
reported-metric: Selectivity Index value

>  <molecule>
CC(=O)OC1CCC2(C)C(CCC3(C)C2CC=C2C4CC(C)(C)CCC4(C(=O)OCCCCCCOC(=O)C45CCC(C)(C)CC4C4=CCC6C7(C)CCC(OC(C)=O)C(C)(C)C7CCC6(C)C4(C)CC5)CCC23C)C1(C)C (stereo not drawn)

>  <reported-metric>
Selectivity Index value

>  <experimental-result>
higher than 1.00

$$$$
>  <molecule>
CC(=O)OC1CCC2(C)C(CCC3(C)C2CC=C2C4CC(C)(C)CCC4(C(=O)OCCCCCOC(=O)C45CCC(C)(C)CC4C4=CCC6C7(C)CCC(OC(C)=O)C(C)(C)C7CCC6(C)C4(C)CC5)CCC23C)C1(C)C (stereo not drawn)

>  <reported-metric>
Selectivity Index value

>  <experimental-result>
higher than 1.00

$$$$
>  <molecule>
CC1(C)CCC2(C(=O)OCCCCCCCCCCCCOC(=O)C34CCC(C)(C)CC3C3=CCC5C6(C)CCC(O)C(C)(C)C6CCC5(C)C3(C)CC4)CCC3(C)C(=CCC4C5(C)CCC(O)C(C)(C)C5CCC43C)C2C1 (stereo not drawn) [Compound 2n, reference compound]

>  <reported-metric>
Selectivity Index value

>  <experimental-result>
higher than 1.00

$$$$

Measured values drawn from paper PMC11434080 for this set.
